# target-of-assay: Dopamine receptors; D1 & D2 (Rattus norvegicus) (UniProt P18901+P61169)
# assay-info: Ratio of binding affinity of D2 to binding affinity of D1
# Type: protein assay
Potency ratio by entry:

mol: COc1cc2c3c(c1)-c1c(ccc(O)c1O)C[C@@H]3N(C)CC2
result-operator: >
Potency ratio: 300

mol: CCCN1CCc2cc(OC)cc3c2[C@H]1Cc1ccc(O)c(O)c1-3
result-operator: =
Potency ratio: 10500

mol: CCCN1CCc2cc(O)cc3c2[C@H]1Cc1ccc(O)c(O)c1-3
result-operator: =
Potency ratio: 17300

mol: COc1cc2c3c(c1)-c1c(ccc(O)c1O)C[C@H]3N(C)CC2
result-operator: >
Potency ratio: 9000

mol: CN1CCc2cc(Cl)cc3c2[C@H]1Cc1ccc(O)c(O)c1-3
result-operator: =
Potency ratio: 3.3

mol: CN1CCc2cc(Br)cc3c2[C@H]1Cc1ccc(O)c(O)c1-3
result-operator: =
Potency ratio: 6

====

# target-of-assay: D(2) dopamine receptor (Rattus norvegicus)
# Sequence (P61169 whole entry): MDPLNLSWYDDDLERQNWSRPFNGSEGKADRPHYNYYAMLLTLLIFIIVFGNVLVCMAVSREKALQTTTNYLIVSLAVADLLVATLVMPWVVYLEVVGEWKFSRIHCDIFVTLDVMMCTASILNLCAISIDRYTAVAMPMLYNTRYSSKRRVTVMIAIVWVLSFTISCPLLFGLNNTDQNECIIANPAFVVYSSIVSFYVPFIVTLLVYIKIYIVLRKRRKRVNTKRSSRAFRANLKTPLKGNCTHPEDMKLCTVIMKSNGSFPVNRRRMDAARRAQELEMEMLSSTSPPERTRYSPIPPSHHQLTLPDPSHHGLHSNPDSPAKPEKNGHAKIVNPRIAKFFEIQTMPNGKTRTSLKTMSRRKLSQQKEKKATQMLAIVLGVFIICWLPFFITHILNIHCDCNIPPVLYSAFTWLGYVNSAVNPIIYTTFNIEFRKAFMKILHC
# assay-info: Binding affinity at rat striatal Dopamine receptor D2 using [3H]- piperone radioligand
pKi: −log10 of the molar value.
Answer Not fulfilled if pKi is under 9, and Fulfilled if it is 9 or more.

mol: CN1CCc2cc(Br)cc3c2[C@H]1Cc1ccc(O)c(O)c1-3
class-name: Not fulfilled
//
mol: CCCN1CCc2cc(OC)cc3c2[C@H]1Cc1ccc(O)c(O)c1-3
class-name: Fulfilled
//
mol: CCCN1CCc2cc(O)cc3c2[C@H]1Cc1ccc(O)c(O)c1-3
class-name: Fulfilled
//
mol: COc1cc2c3c(c1)-c1c(ccc(O)c1O)C[C@@H]3N(C)CC2
class-name: Not fulfilled
//
mol: CN1CCc2cc(Cl)cc3c2[C@H]1Cc1ccc(O)c(O)c1-3
class-name: Not fulfilled

====

# target-of-assay: D(1A) dopamine receptor (Rattus norvegicus, UniProt P18901)
# Sequence (P18901 whole entry): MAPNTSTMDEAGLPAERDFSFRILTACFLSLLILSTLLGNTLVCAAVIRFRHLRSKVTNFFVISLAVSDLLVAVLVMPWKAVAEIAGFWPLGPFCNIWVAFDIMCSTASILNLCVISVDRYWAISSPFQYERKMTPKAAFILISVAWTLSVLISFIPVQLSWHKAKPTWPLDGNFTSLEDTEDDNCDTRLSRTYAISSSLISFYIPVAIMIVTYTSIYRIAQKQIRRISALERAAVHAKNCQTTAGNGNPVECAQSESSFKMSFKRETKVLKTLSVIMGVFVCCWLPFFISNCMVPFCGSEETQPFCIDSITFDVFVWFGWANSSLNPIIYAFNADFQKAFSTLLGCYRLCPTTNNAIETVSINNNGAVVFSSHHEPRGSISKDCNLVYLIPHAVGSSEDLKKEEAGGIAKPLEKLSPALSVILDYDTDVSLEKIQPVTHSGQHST
# assay-info: Binding affinity at rat striatal Dopamine receptor D1 using [3H]- SCH-23390 radioligand
Ki by entry:

mol: CCCN1CCc2cc(O)cc3c2[C@H]1Cc1ccc(O)c(O)c1-3
unit-string: nM
result-operator: =
Ki: 915
//
mol: CN1CCc2cc(Br)cc3c2[C@H]1Cc1ccc(O)c(O)c1-3
unit-string: nM
result-operator: =
Ki: 106
//
mol: COc1cc2c3c(c1)-c1c(ccc(O)c1O)C[C@@H]3N(C)CC2
unit-string: nM
result-operator: <
Ki: 10000
//
mol: COc1cc2c3c(c1)-c1c(ccc(O)c1O)C[C@H]3N(C)CC2
unit-string: nM
result-operator: <
Ki: 10000
//
mol: CN1CCc2cc(Cl)cc3c2[C@H]1Cc1ccc(O)c(O)c1-3
unit-string: nM
result-operator: =
Ki: 74.5
//
mol: CCCN1CCc2cc(OC)cc3c2[C@H]1Cc1ccc(O)c(O)c1-3
unit-string: nM
result-operator: =
Ki: 1780

====

Ki by entry:
# target-of-assay: Dopamine receptor (Bos taurus, UniProt Q95136+P20288)
# assay-info: Agonistic activity against calf striatal Dopamine receptor using [3H]- ADTN radioligand
# Assay type: functional

mol: CCCN1CCc2cc(OC)cc3c2[C@H]1Cc1ccc(O)c(O)c1-3
Ki / nM: 3.84

mol: CCCN1CCc2cc(O)cc3c2[C@H]1Cc1ccc(O)c(O)c1-3
Ki / nM: 1.15

mol: COc1cc2c3c(c1)-c1c(ccc(O)c1O)C[C@@H]3N(C)CC2
Ki / nM: 162

mol: COc1cc2c3c(c1)-c1c(ccc(O)c1O)C[C@H]3N(C)CC2
Ki / nM: 16.4
